Exercise: for every item that follows, state its recorded growth inhibition.
- testSummary: NCI Yeast Anticancer Drug Screen. Data for the mlh1 rad18 strain (AID 175)
- conditionDetails: S. cerevisiae mlh1 rad18 strain growth inhibition; at 50.0 µM; hits give high values
This is part of a sample that, as a whole, favours compounds with a hit. Of some 79,000 tested, about 15% had one in any assay.
Give bare numbers, in %.

Completed entries (count: 3):
{"columns": ["compound", "uom", "growth inhibition"],
 "data": [
  ["CC(C(N)=O)N1C(=O)C2C3CCC(O3)C2C1=O (configuration not stated)", "%", 3.1],
  ["O=C(O)c1cccnc1-c1ccccc1", "%", -12.2],
  ["Cc1nc(Cl)c2cnccn12", "%", 0.2]
]}

Here are 7 compounds. What values of growth inhibition were reported for them?
1. NCC1OC(OC2C(CO)OC(OC3C(O)C(N)CC(N)C3OC3OC(CO)C(O)C(O)C3N)C2O)C(N)C(O)C1O (configuration not stated)
2. CC(=O)N(C(=O)CC(=O)NN)c1ccc(Cl)cc1
3. O=C1C(c2ccccc2)=C(c2ccccc2)c2ccc(Cl)cc21
4. O=C(O)C12CCCC(CCC1)C2
5. O=C(O)c1cccc(=O)o1
6. Cc1nc2ccc(S(=O)(=O)Nc3ccccn3)cc2c(=O)n1NS(=O)(=O)c1ccccn1
7. CC(=O)NC1C(SC(=O)NCCCl)OC(COC(C)=O)C(OC(C)=O)C1OC(C)=O (configuration not stated)

Result:
33.7
26
6.45
-0.55
-1.65
26.4
-4.3

For each entry beneath this line, provide reported growth inhibition.
1. CCOC(=O)c1ccc(NC(=S)Nc2ccccc2S)cc1
2. COC(=O)C(C)(N)Cc1ccc(O)c(C)c1 (configuration not stated)

Result:
1. 11.9
2. -9.9

====

- testSummary: NCI Yeast Anticancer Drug Screen. Data for the bub3 strain (AID 167)
- conditionDetails: S. cerevisiae bub3 mutant strain, at 50.0 µM
The panel holds about 79,000 compounds, 15% with a hit somewhere; the sample as a whole holds those more often. Calls of active or inactive are those of the source. No stated cut-off is given here; in the data, active means growth inhibition above about 70%; inactive means the rest.
Outcomes you can answer with include only these: 1.0 (active), 0.0 (inactive)

{"columns": ["compound", "label"],
 "data": [
  ["CC(=O)Nc1ccc(-c2nnc(SCC(=O)Nc3ccc(C)cc3)o2)cc1", 0.0]
]}

Ask: // outcome(item) with item = O=C(c1ccccc1)C1C(C(=O)c2ccccc2)C1c1ccccc1 (configuration not stated)
Result: 0.0

Ask: Given `CC(=O)OCC(CBr)(CBr)COC(C)=O` , state the outcome it received in this test.
Result: 0.0

Ask: Which result was noted for this compound in the test: CCCOC1(C)Oc2cc3c(cc2C(c2cc(OC)c(OC)c(OC)c2)C1C)OCO3 (configuration not stated)
Result: 0.0

Ask: Called result for CC1(C)OC2C(C(=O)O)OC(n3cnc4c(N)ncnc43)C2O1 (configuration not stated)
Result: 0.0

Ask: Called result for `CCCCCCCCCc1ccc(OC(=O)CCC)cc1`
Result: 0.0

Ask: Please share the test call associated with `Cc1ccc(S(=O)(=O)OCCOCCOc2ccc(C(C)(C)CC(C)(C)C)cc2)cc1` .
Result: 0.0

Ask: State the result this test recorded for `Cc1ccc(/C(=C/CN2CC3CCC(CC3)C2)c2ccccc2)cc1` .
Result: 0.0

Ask: Recorded test call requested for `CCc1cc(COC(C)=O)on1`
Result: 0.0

Ask: Call for entry CC(C)(C)[Si](C)(C)OCC1CCC(n2cnc3c(=O)[nH]cnc32)O1 (configuration not stated) :
Result: 0.0

Ask: Which result was noted for this compound in the test: `NC(=O)C(C(N)=O)c1ccnc2ccccc12`
Result: 0.0

Values compiled from PubChem BioAssay (NCI).
